target: SelH (Homo sapiens, UniProt Q8IZQ5, U44C); assay: Surface plasmon resonance (SPR) detection of affinity between compounds and SelH; format: binding; settings: ranking within the table's compounds
REPORTED METRIC: binding activity to the SelH (in words)

INSERT INTO results (compound, test_value) VALUES
  ('CC(C)=CCC[C@](C)(O[C@@H]1O[C@H](CO)[C@@H](O)[C@H](O)[C@H]1O)[C@H]1CC[C@]2(C)[C@@H]1[C@H](O)C[C@@H]1[C@@]3(C)CC[C@H](O)C(C)(C)[C@@H]3[C@@H](O[C@@H]3O[C@H](CO)[C@@H](O)[C@H](O)[C@H]3O[C@@H]3OC[C@@H](O)[C@H](O)[C@H]3O)C[C@]12C [Notoginsenoside R1, notoginsenoside R1]', 'weakest'),
  ('CC(=O)O[C@H](CC=C(C)C)C1=CC(=O)c2c(O)ccc(O)c2C1=O', 'strongest'),
  ('CC(C)=CCCC(C)(O)[C@H]1CC[C@]2(C)[C@@H]1[C@H](O)C[C@@H]1[C@@]3(C)CC[C@H](O)C(C)(C)[C@@H]3CC[C@]12C (stereo in doubt)', 'strongest'),
  ('CC[C@H]1OC(=O)[C@H](C)[C@@H](O[C@H]2C[C@@](C)(OC)[C@@H](O)[C@H](C)O2)[C@H](C)[C@@H](O[C@@H]2O[C@H](C)C[C@H](N(C)C)[C@H]2O)[C@](C)(O)C[C@@H](C)CN(C)[C@H](C)[C@@H](O)[C@]1(C)O', 'weakest');

* * *

tested on: human non-small cell lung cancer cells A549
REPORTED METRIC: pIC50
// returns pIC50 (minus log10 of molar concentration), number only

INSERT INTO assay_data (molecule, test_value) VALUES
  ('CC(C)=CCC[C@](C)(O[C@@H]1O[C@H](CO)[C@@H](O)[C@H](O)[C@H]1O)[C@H]1CC[C@]2(C)[C@@H]1[C@H](O)C[C@@H]1[C@@]3(C)CC[C@H](O)C(C)(C)[C@@H]3[C@@H](O[C@@H]3O[C@H](CO)[C@@H](O)[C@H](O)[C@H]3O[C@@H]3OC[C@@H](O)[C@H](O)[C@H]3O)C[C@]12C [Notoginsenoside R1, notoginsenoside R1]', 3.90);

Readout pIC50 for CC(C)=CCC/C(C)=C/COc1ccc2ccc(=O)oc2c1 [Aurapten, aurapten] , test system human non-small cell lung cancer cells A549, was 4.29

* * *

tested on: mouse melanoma B16-BL6 cells; experiment: cells; format: cell-based; conditions: Mus musculus, B16-BL6, 48 h, read-out: IC50 cytotoxic effect on B16-BL6
REPORTED METRIC: pIC50
Quick note: pIC50 values are minus log10 of concentrations in mol/L.

INSERT INTO measurements (compound_smiles, test_value) VALUES
  ('CC(=O)O[C@H](CC=C(C)C)C1=CC(=O)c2c(O)ccc(O)c2C1=O', 5.35);

For the next question, use this compound.
Given the compound CC(C)=CC[C@@H](O)C1=CC(=O)c2c(O)ccc(O)c2C1=O and test system mouse melanoma B16-BL6 cells, the measured pIC50 is 4.89

* * *

molecular target: SelH (Homo sapiens, UniProt Q8IZQ5, U44C); experiment: Surface plasmon resonance (SPR) detection of affinity between compounds and SelH; format: binding; settings: SPR Biacore 8K, single-cycle kinetics; Table 3; read-out: KD binding of macrolides and cyclic peptides to SelH
REPORTED METRIC: Kd

The measured Kd associated with C=C(NC(=O)C(=C)NC(=O)c1csc(C2=N[C@@H]3c4csc(n4)[C@H]4NC(=O)c5csc(n5)[C@H]([C@](C)(O)[C@@H](C)O)NC(=O)[C@H]5CSC(=N5)/C(=C/C)NC(=O)[C@H]([C@@H](C)O)NC(=O)c5csc(n5)[C@]3(CC2)NC(=O)[C@H](C)NC(=O)C(=C)NC(=O)[C@H](C)NC(=O)[C@H]([C@@H](C)CC)N[C@@H]2C=Cc3c([C@H](C)O)cc(nc3[C@H]2O)C(=O)O[C@@H]4C)n1)C(N)=O reads 19.9 µM
